assay type: in vivo, human; conditions: human, plasma, inhaled
measurement type: Vd/F (L)

COc1cc(NC(=O)CCN2CCC(OC(=O)Nc3ccccc3-c3ccccc3)CC2)c(Cl)cc1CNC[C@H](O)c1ccc(O)c2[nH]c(=O)ccc12 ... 6.26

Sourced from paper PMC4561049
